Reported apparent KD of MS2 coat protein values for a set of sequences
tested on: MS2 coat protein; assay: apparent KD of MS2 coat protein; designed switch direction (-1 OFF switch, 1 ON switch): -1; higher = weaker reporter binding; settings: input ligand: FMN 200 uM
resultType: apparent KD of MS2 coat protein (nM)

polymerSequence	experimentalResult
GCCGUACAAGGAUAUACAUGAGGAUCACCCAUGUGUCUCCUCGAGAGCAAACGGCUCUGUAGAAGGUGUCGUAA [EX3 C.20] (Eterna round: R97, puzzle: Exclusion 3)	16.5
UGUUGUUACGCAGGAUAUGAGGAUCACCCAUAGUAGGAUAACGAAAGUGAAGGACUGAGGAUUACCCAGAAGGGCGGGUUAACA [pwkr exNG2 2xF5 2xFMN.3] (Eterna round: R96, puzzle: Exclusion NG 2)	1010
UGAUGACAUGAGGAUCACCCAUGUCAGGAUAUGCUUCGGCUUCGGAAAUGAAGUUGAAGUAGAAGGGACUGUCG [-27.1, -24.1 kcal, A 28% sequence 3 bis] (Eterna round: R97, puzzle: Exclusion 1)	37.7
AAUAACAAGCCGAUCCUAAACAUGAGGAUCACCCAUGUGCUCGUCUUGUAAAGUACUAUCACGAAAGUGAUAGUACA (Eterna round: R96, puzzle: Sensor v3, turn-off variant 1)	18.1
UUAACGUCAGGAUAUGCUUAAUAUAUUAUAUUAUAAUAUAUACAUGAGGAUCACCCAUGUAGAAGGGACAUUAU [LRO-Excl2-02-Fireball XL5] (Eterna round: R97, puzzle: Exclusion 2)	34.1

* * *

tested on: MS2 coat protein; experiment: apparent KD of MS2 coat protein, switch OFF state (with FMN for OFF switches, without FMN for ON switches); designed switch direction (-1 OFF switch, 1 ON switch): -1; higher = weaker reporter binding; conditions: FMN input: 0 or 200 uM; Eterna round: R93 (includes R88 designs)

polymerSequence	apparent KD of MS2 coat protein
AAAACGGCAGGAUAUACAGAUGAGAUCUCGACCGAAAAAAAACAUGAGGAUCACCCAUGUAGAAGGGCCAAAAA [Ex2 Malc#5]	60.9 nM
AACAGUACAGGAUAUACAUGAGGAUCACCCAUGUGACAUAAAUAAAACAAAAAUAAAAGUAGAAGGGUACUGGA [Ruby 43]	60 nM
AAAAAAAAAGGAUAUACAGGAGGUAAGGUCGGACAAAAAAGACAUGAGGAUCACCCAUGUAGAAGGUUUAAAAA [Excls2-X]	35.1 nM
AGGAAACAUGAGGAUCACCCAUGUAAGGAUAUGAGAAAGAAAAGAAAAGAAAGAAGAAUCAGAAGGUACAAGAA [Semerkhet]	89.2 nM
AAAAAGGUAGGAUAUACAUGAGGAUCACCCAUGUAAAAAAACGCAGAAAAAAACAAUUGUAGAAGGGCCAAAAA [Ex3 Malc#6]	10.6 nM
AAUAUGUUAGGAUAUGCUGCUCGUCACAAAAGUGAUGAGUAGCAGAAGGAACAUGAGGAUCACCCAUGUAAAGA [JL eternac mod 12]	39 nM
GAAUGAUGAGGAUAUACAUGAGGAUCACCCAUGUGUAAAAAUAAAUACACAAAAGAAAGUAGAAGGCAUCAAAG [Mat - Exclusion 3 - Mayanna mod - D120]	99 nM
AAAGGACGAGGAUAUACAUGAGGAUCACCCAUGUAAAAAACAUAGUCAAAGGGCUUGUGUAGAAGGCGUCCAAA [Meechl Ex3 2 R2 v11]	229 nM
AAAAAUUGAGGAUAUACGAACAUGUCGAAAGACGUGAAGGGACAUGAGGAUCACCCAUGUAGAAGGCGAAAGAA [Mat - Exclusion 2 - JL mod - D67]	18.2 nM
AAAGGACGAGGAUAUACAUGAGGAUCACCCAUGUAAAAAGCGUAGCAAAAGAGCUUAUGUAGAAGGCGUCCAAA [Meechl Ex3 2 R2 v4]	49.3 nM
GAAGAACAUGAGGAUCACCCAUGUGAGGAUAUACAGAAGGGAAUAAAAUAACCUGAAAGUAGAAGGCACAAGAA [Ex 1 May 41]	65.8 nM
AAGAACCUAGGAUAUACAUGAGGAUCACCCAUGUAAAAGAAAGAAAGGGAAAAGAAAAGUAGAAGGAGGAAGAA [Heqakheperre Shoshenq II]	15.7 nM
AGGAAACAUGAGGAUCACCCAUGUGAGGAUAUUGGAAAGAAAAGAAAAGAAAGAAGAAUAAGAAGGCACAAGAA [Merneith]	18.2 nM
